Values were extracted from paper PMC7796031.

Test: Preliminary pharmacokinetic study, plasma concentration by RP-HPLC-fluorescence
Assay type: in vivo, C57BL/6 mice
Settings: Table S2, Study 1 mouse 2, dose given 0.36 mg i.p., 60 min
Measure: Blood concentration, Cal. Conc. (ng/mL)
Answer in ng/mL, number only, no unit symbol.

Which Blood concentration, Cal. Conc. reading was recorded for the compound CC(C)=CCOc1cc2ccc(=O)oc2cc1OCC=C(C)C [Compound 50, 6,7-diprenoxycoumarin] ?
80

====

Parameter activation at 10 µM: see the listing below.
Molecular target: Constitutive androstane receptor (CAR) (Homo sapiens, UniProt Q14994)
Construct: The pGL4-gtPBREM plasmid was transfected into Hep3B cells; endogenous in cells
Sequence (Q14994 whole entry): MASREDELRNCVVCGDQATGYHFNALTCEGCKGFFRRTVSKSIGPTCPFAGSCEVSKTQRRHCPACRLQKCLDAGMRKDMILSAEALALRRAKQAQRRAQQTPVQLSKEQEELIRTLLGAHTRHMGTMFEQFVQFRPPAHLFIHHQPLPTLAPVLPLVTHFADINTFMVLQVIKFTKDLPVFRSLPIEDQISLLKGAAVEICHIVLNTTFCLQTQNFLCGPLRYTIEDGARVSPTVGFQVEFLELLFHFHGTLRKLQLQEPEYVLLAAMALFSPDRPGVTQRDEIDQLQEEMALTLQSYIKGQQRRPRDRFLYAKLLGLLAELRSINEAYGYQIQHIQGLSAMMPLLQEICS
Assay: In vitro CAR activation screening assay (UGT1A1 promoter gtPBREM-pGL4 luciferase reporter in Hep3B-gtPBREM cells)
Type: cell-based
Conditions: Table 1; 10 μM; (luminescence of compound − luminescence of scoparone)/luminescence of scoparone × 100%; read-out: CAR Activation Fold
Answer in %, number only, no unit symbol.

Example entries and their recorded answers appear below.
Smi | activation at 10 µM / %
O=c1ccc2ccc(OC(F)(F)F)cc2o1 | 18
COc1ccc2ccc(=O)oc2c1 | -9
CC(C)=CCCC(C)=CCCC(C)=CCOc1cccc2oc(=O)ccc12 | 2

Under Constitutive androstane receptor (CAR) (Homo sapiens, UniProt Q14994): activation at 10 µM value of COc1cccc2ccc(=O)oc12 ?
-8

Try this compound next: CCCCOc1ccc2oc(=O)ccc2c1
37
